assay: qHTS assay to identify small molecule antagonists of the estrogen receptor alpha (ER-alpha) signaling pathway - cell viability counter screen (AID 743074); conditions: ERalpha-bla HEK293 viability, CellTiter-Glo luminescence, 18 h; series mostly up to 69.4 µM;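 also: HEK293 cells carrying ER-alpha-UAS-bla reporter stimulated with 17beta-estradiol; nearly all actives have a fitted effect of over 45% in size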
Results filed as inconclusive are left out. The source made the active and inactive calls. Calls follow the shape of the full dose curve.
Give your call using only these classes: 1.0 for active, 0.0 for inactive

These recorded examples may help you get a feel for the data.
compound	class-label
CC(C)Br	0.0
CCCCn1cc[n+](C)c1 (tested in a mixture with another compound)	0.0
Nc1c(Cl)c(Cl)c(Cl)c(Cl)c1Cl	0.0

Kindly provide the recorded test outcome for the following compound: CC(C)(C)c1ccc(OP(=O)(Oc2ccccc2)Oc2ccccc2)cc1
0.0

Kindly provide the recorded test outcome for the following compound: CC(Cl)CCl (configuration not stated)
0.0

Kindly provide the recorded test outcome for the following compound: CCOP(=O)(OCC)Oc1cc(C)nc(C(C)C)n1
0.0

Kindly provide the recorded test outcome for the following compound: ClC1=C(Cl)[C@]2(Cl)[C@@H]3[C@H]4C[C@H]([C@@H]5O[C@H]45)[C@@H]3[C@@]1(Cl)C2(Cl)Cl
0.0

Kindly provide the recorded test outcome for the following compound: NC(=O)C(Cl)Cl
0.0

Kindly provide the recorded test outcome for the following compound: [O]=[Cr][O][Cr]=[O]
0.0

Kindly provide the recorded test outcome for the following compound: Oc1ccc2[nH]cc(CCCCN3CC=C(c4ccccc4)CC3)c2c1
0.0

Kindly provide the recorded test outcome for the following compound: [F][Sn]([c]1ccccc1)([c]1ccccc1)[c]1ccccc1
1.0

Kindly provide the recorded test outcome for the following compound: C[N+]1(C)[C@@H]2CC[C@H]1CC(OC(=O)C(CO)c1ccccc1)C2 (some centres not stated)
0.0
